Tested on: E. coli TESEC Mtb Alr
protocol: growth (OD600 after 10 h); higher = more growth (less inhibition)
conditions_used: arabinose 100 nM; compound 0.1 mM; raw OD600 reference: median of DMSO wells 0.413, cell-free background 0.052
Where a name gives a salt, the structure may show the parent alone.
metric: growth
API doc: respond with a numeric literal and nothing else, no unit.

CN(C)CCN(Cc1ccccc1)c1ccccn1 [Tripelennamine hydrochloride]; 0.406
COC(=O)[C@H]1[C@H]2C[C@@H]3c4[nH]c5cc(OC)ccc5c4CCN3C[C@H]2C[C@@H](OC(=O)c2cc(OC)c(OC)c(OC)c2)[C@@H]1OC; 0.408
NC(=O)c1ccc[n+]([C@@H]2O[C@H](COP(=O)([O-])OP(=O)(O)OC[C@H]3O[C@@H](n4cnc5c(N)ncnc54)[C@H](O)[C@@H]3O)[C@@H](O)[C@H]2O)c1 [Nadide]; 0.415
CCN(CC)CCNc1ccc(CO)c2sc3ccccc3c(=O)c12; 0.365
Cc1c(Cl)cccc1Nc1ncccc1C(=O)O [Clonixin Lysinate]; 0.283

Find the measured growth: item CCN(CC)C(=S)SSC(=S)N(CC)CC , target or system E. coli TESEC Mtb Alr.
0.23

Find the measured growth: item C#C[C@]1(O)CC[C@H]2[C@@H]3CCC4=C(CCC(=O)C4)[C@H]3CC[C@@]21C , target or system E. coli TESEC Mtb Alr.
0.399

Find the measured growth: item Cc1ccc(N(CC2=NCCN2)c2cccc(O)c2)cc1 [Phentolamine hydrochloride] , target or system E. coli TESEC Mtb Alr.
0.411

Find the measured growth: item CC(C)(C(=O)c1cccnc1)c1cccnc1 , target or system E. coli TESEC Mtb Alr.
0.409

Find the measured growth: item CCOC(=O)C1=C[C@]2(CC)CCCN3CCc4c(n1c1ccccc41)[C@@H]32 , target or system E. coli TESEC Mtb Alr.
0.409

---

Tested on: E. coli TESEC Mtb Asd
protocol: growth (OD600 after 10 h); higher = more growth (less inhibition)
conditions_used: arabinose induction (level): Low; compound 0.1 mM; raw OD600 reference: median of DMSO wells 0.417, cell-free background 0.041
Counter-ions that a name gives are not always drawn.
metric: growth

// solved cases for growth follow
COC(=O)Nc1nc2cc(C(=O)c3ccc(F)cc3)ccc2[nH]1 [Flubendazol]; 0.491
CC(=O)Oc1ccccc1C(=O)Nc1ncc([N+](=O)[O-])s1 [Nitazoxanide]; 0.0595
CNCCc1ccccn1 [Betahistine mesylate]; 0.4
CC(C)C[C@H](NC(=O)[C@@H](O)[C@H](N)Cc1ccccc1)C(=O)O [Ubenimex]; 0.382
Nc1nc(=O)[nH]cc1F [Flucytosine]; 0.492

What does the record list as growth for CC1CC(OC(=O)C(O)c2ccccc2)CC(C)(C)N1C (configuration not stated) [Eucatropine hydrochloride] ?
0.432

What does the record list as growth for O=C(c1ccc(F)cc1)C1CCN(CCn2c(=O)[nH]c3ccccc3c2=O)CC1 [Ketanserin tartrate hydrate] ?
0.393

What does the record list as growth for CCC(=O)O[C@]1(C(=O)SCF)[C@H](C)C[C@H]2[C@@H]3C[C@H](F)C4=CC(=O)C=C[C@]4(C)[C@@]3(F)[C@@H](O)C[C@@]21C [Fluticasone propionate] ?
0.36

What does the record list as growth for Cc1onc(-c2ccccc2)c1C(=O)N[C@@H]1C(=O)N2[C@@H]1SC(C)(C)[C@@H]2C(=O)O [Oxacillin sodium] ?
0.477
